// data source = ChEMBL document CHEMBL1201862

- Tested on: MDA-N
- TEST_DESCRIPTION: NCI tumour cell line growth inhibition, 48 h
Active and inactive are the calls of the source. Cut-off read from the data, not from the text of the source: active = GI50 up to about 1.1 µM and inactive = higher.
ASSAY_METRIC: GI50

These recorded examples may help you get a feel for the data.
CC(C)(C)C1(COC(=O)c2ccc(N)cc2)COC1 66.1 µM (inactive)
CSc1ccc(NC(=O)CCl)cc1 4.84 µM (inactive)

Problem: Give the value of GI50 reported for the following: `N#C/C(=C\c1ccc2[nH]ccc2c1)C(=O)c1ccc(O)c(O)c1`
Solution: > 100 µM (inactive)

###

- Tested on: LOX IMVI
- TEST_DESCRIPTION: NCI tumour cell line growth inhibition, 48 h
Active and inactive are the calls of the source. Cut-off read from the data, not from the text of the source: active = GI50 up to about 1.1 µM and inactive = higher.
ASSAY_METRIC: GI50

Example cases with answers are listed next.
COMPOUND	SYSTEM	GI50
O=P1(C(O)c2ccccc2)N(Cc2ccccc2)[C@@H]2CCCC[C@H]2N1Cc1ccccc1 (some centres not stated)	LOX IMVI	17.5 µM (inactive)
O=C(Nc1cc(Cl)c(Cl)cc1Cl)C(=O)C1C=CCS1(=O)=O (configuration not stated)	LOX IMVI	> 100 µM (inactive)
COC(=O)C(C(=O)C(=O)Nc1nnc(S)[nH]1)c1csc(N)n1 (configuration not stated)	LOX IMVI	> 100 µM (inactive)

Problem: Give GI50 for the following compound: CC(=O)O[C@H]1CC[C@@]2(C)C(=C/C(=N\[N+](=O)[O-])[C@H]3C4CCC([C@H](C)CCCC(C)C)[C@@]4(C)CCC32)C1 (some centres not stated)
Solution: > 100 µM (inactive)

Problem: Hello, please tell me recorded GI50 for this one: `Cc1cc(Cl)nc2nc(Cl)c(N)cc12`
Solution: 1.91 µM (inactive)

Problem: For the compound COc1ccc2c(c1)CC1C3(CCCCC23)CC[N+]1(C)C (configuration not stated) , give its measured GI50 value.
Solution: > 100 µM (inactive)

Problem: Check the records and state GI50 for `CS/C(=N\Nc1cnc2ccccc2n1)NS(=O)(=O)c1cc(C)c(Cl)cc1Cl`
Solution: 61.1 µM (inactive)

Problem: Input `O=S1(=O)OCCOS(=O)(=O)C1(Cl)Cl` , output reported GI50.
Solution: 61.4 µM (inactive)

Problem: Give the value of GI50 reported for the following: CCCCCCCCCCCCCCCCC(C(=O)O)C(O)(CC(=O)O)C(=O)O (configuration not stated)
Solution: 26.5 µM (inactive)

###

- Test system: PC-3
- TEST_DESCRIPTION: NCI tumour cell line growth inhibition, 48 h
Active and inactive are the calls of the source. Cut-off read from the data, not from the text of the source: active = GI50 up to about 1.1 µM and inactive = higher. Peptide text beside a SMILES is read from it. * marks the point of attachment. Boc = CC(C)(C)OC(=O)*; OBn = c1ccc(CO*)cc1; Bn = c1ccc(C*)cc1
Below is a list of entries, each paired with its recorded GI50 value.

Problem: Give the measured GI50 for `c1cn[nH]c1`
Solution: > 10 µM (inactive)

Problem: Hello, please tell me recorded GI50 for this one: `CC(C)=CCc1c(OC(=O)c2c(C)cc(O)cc2O)cc(CO)c(CO)c1O`
Solution: 18 µM (inactive)

Problem: Let me know recorded GI50 for `COc1ccccc1/C=C/c1nc2ccccc2o1` , thanks.
Solution: > 10 µM (inactive)

Problem: Identify GI50 associated with the compound CC(C)CC(NC(=O)C(CCC(=O)OCc1ccccc1)NC(=O)OC(C)(C)C)C(=O)NC(COCc1ccccc1)C(=O)NC(Cc1ccccc1)C(=O)O (stereo unspecified) (Boc-E(OBn)LS(Bn)F-OH; configuration not given here)
Solution: > 100 µM (inactive)

Problem: # return recorded GI50 for entry `CC(=O)OCCCCn1cnc2nc(Nc3ccccc3)nc(Cl)c21`
Solution: 42.5 µM (inactive)

###

- Test system: KM-20L2
- TEST_DESCRIPTION: NCI tumour cell line growth inhibition, 48 h
Calls of active or inactive are those of the source. Rule as the data show it: active = GI50 up to about 1.1 µM and inactive = higher.
# Lookup of reported GI50 keyed by entry

COMPOUND	ASSAY_METRIC	RESULT
COc1ccc(OC)c2c3c(ccc12)C(c1ccccc1)OC3=O (stereo not drawn)	GI50	> 100 µM (inactive)
Cc1c(O)c(O)cc[n+]1C1OC(CO)C(O)C1O (stereo not drawn)	GI50	> 100 µM (inactive)
C#CCN(C(=O)C(F)(F)F)c1ccc(C(=O)c2ccc(N(CC#C)C(=O)C(F)(F)F)cc2)cc1	GI50	> 100 µM (inactive)
CCOC(=O)NC(=O)c1cn(CCOC(=O)CCCCCCCCC(=O)OCCn2cc(C(=O)NC(=O)OCC)c(=O)[nH]c2=O)c(=O)[nH]c1=O	GI50	> 100 µM (inactive)
O=C1/C(=C/c2ccc(O)c(O)c2)CCC/C1=C\c1ccc(O)c(O)c1	GI50	11.6 µM (inactive)
CCO/C=C1\N=C(c2ccccc2Br)OC1=O	GI50	> 100 µM (inactive)

Problem: Supply recorded GI50 for `COc1cc(/C=N\O[Si](C)(C)C(C)(C)C)ccc1O[Si](C)(C)C(C)(C)C` here.
Solution: > 100 µM (inactive)

Problem: Consider the compound COc1cc(C(C)c2cc3c(cc2OCCCCCOc2cc4c(cc2C(C)c2cc(OC)c(OC)c(OC)c2)OCO4)OCO3)cc(OC)c1OC (stereo not drawn) . State its measured GI50.
Solution: > 100 µM (inactive)

Problem: Provide only the value of recorded GI50 for `O=Cc1ccc(CCl)cc1`
Solution: 23.6 µM (inactive)

Problem: Tell us which GI50 value is on record for `COc1ccc(CCNCCCC2c3ccccc3-c3ccccc32)cc1OC`
Solution: 3.45 µM (inactive)

Problem: Read the entry CCOc1ccc(NC(=O)CC2SC(Nc3ccc(C)cc3C)=NC2=O)cc1 (stereo not drawn) and write its reported GI50.
Solution: > 100 µM (inactive)

Problem: Read the entry Cc1cccc(NC(=O)C(=O)C(C(=O)c2ccc3ccccc3c2)C2OC(=O)c3ccccc32)c1C (stereo not drawn) and write its reported GI50.
Solution: 33 µM (inactive)

Problem: Identify the reported GI50 for the following entry. `COc1ccc(CC(=O)NCCc2ccc(OC)c(OC)c2OC)cc1`
Solution: > 100 µM (inactive)

###

- System: SNB-75
- TEST_DESCRIPTION: NCI tumour cell line growth inhibition, 48 h
Calls of active or inactive are those of the source. Cut-off read from the data, not from the text of the source: active = GI50 up to about 1.1 µM and inactive = higher.
Reported GI50 values for the following compounds.

COMPOUND	SYSTEM	RESULT
CO[P@@]1(=O)O[C@@H](c2ccccc2)[C@H](O)[C@]1(O)c1ccccc1	SNB-75	> 100 µM (inactive)
CC(=O)c1sc(=N)n(-c2c(C)cccc2C)c1C	SNB-75	> 100 µM (inactive)
CCC12C=CCN3CCC4(C(=C(C(=O)OC)C1)Nc1ccccc14)[C@H]32 (stereo not given in full)	SNB-75	22 µM (inactive)
CC(Oc1ccc(Cl)cc1Cl)C(=O)NN1C(=O)CSC1c1ccc(Cl)cc1 (stereo not given)	SNB-75	27.9 µM (inactive)
O=C(NC1C(O)C(O)C(CO)OC1n1cc(F)c(=O)[nH]c1=O)OCc1ccccc1 (stereo not given)	SNB-75	> 100 µM (inactive)
Cc1cc(N(CCC#N)CCC#N)ccc1/C=N/NC(=O)c1cc(Cl)ccc1O	SNB-75	34.1 µM (inactive)
Cc1ccc(/N=N/c2c(O)c3ccccc3[nH]c2=O)c(S(=O)(=O)N(C)C)c1	SNB-75	> 100 µM (inactive)
Cc1cc2nc3[nH]nc(N)c3nc2cc1C	SNB-75	26.2 µM (inactive)
N#CC(c1ccccc1)N(CCCCCCN(C(=O)c1ccccc1)C(C#N)c1ccccc1)C(=O)c1ccccc1 (stereo not given)	SNB-75	52.4 µM (inactive)
NC(=S)N1N=C(c2ccc3c(c2)CCC3)CC1c1ccccc1 (stereo not given)	SNB-75	18.1 µM (inactive)

Note: attention shifts to another entry.
Problem: Param request: GI50 | system SNB-75 | item `CC1(C)N=c2c(ncn2-c2ccccc2)=C(C(N)=O)N1`
Solution: > 100 µM (inactive)

###

Each item that follows carries a reported GI50.
- Tested on: HL-60
- TEST_DESCRIPTION: NCI tumour cell line growth inhibition, 48 h
Active and inactive are the calls of the source. Rule as the data show it: active = GI50 up to about 1.1 µM and inactive = higher.

COMPOUND	RESULT
C=CCOc1ccccc1C1(O)c2ccccc2C2=NCCCN21 (stereo not given)	26.8 µM (inactive)

Problem: Query GI50 for CSc1ncnc2c1cnn2Cc1cn(COCC(O)CO)nn1 (stereo not given)
Solution: > 100 µM (inactive)

Problem: Give reported GI50 value for `CN(C)CCNC(=O)c1c(O)ccc2c1c1c(n2CCc2ccccc2)C(=O)c2ccccc2C1=O`
Solution: 9.18 µM (inactive)

Problem: For `CO[C@H]1C[C@H](O[C@H]2CC[C@]3(C=O)[C@H]4CC[C@]5(C)[C@@H](C6=CC(=O)OC6)CC[C@]5(O)[C@@H]4CC[C@]3(O)C2)O[C@H](C)[C@H]1O[C@@H]1O[C@H](CO[C@@H]2O[C@H](CO)[C@@H](O)[C@H](O)[C@H]2O)[C@@H](O)[C@H](O)[C@H]1O` , write its GI50.
Solution: 0.0361 µM (active)

Problem: Give me measured GI50, please, for this compound: CC(=O)NC(CC(C)C)C(=O)NC(Cc1ccccc1)C(=S)N1CCCC1 (stereo not given)
Solution: > 100 µM (inactive)

Problem: // Input: `CCN(CC)CCn1nc(N)c2nc3ccccc3nc21` . Output its GI50 only.
Solution: > 100 µM (inactive)

Problem: Indicate its recorded GI50; the compound in question is `Cc1nc2c(O)cc3c4c(n(Cc5ccccc5)c3c2nc1C)C(=O)CCC4`
Solution: > 100 µM (inactive)

Problem: Could you please provide reported GI50 for CCOC(=O)C(Cc1c[nH]c2cc([N+](=O)[O-])ccc12)NS(=O)(=O)c1ccc2ccccc2c1 (stereo not given) ? Thanks!
Solution: 22.8 µM (inactive)

Problem: Give me measured GI50, please, for this compound: `Cc1cccc2c1NC(=O)/C2=N\Nc1ccccc1[N+](=O)[O-]`
Solution: 78.5 µM (inactive)

Problem: Tell me its GI50 given CC(C)(CN1CCCCC1)C(=O)CC(SCCS(=O)(=O)O)c1ccc(Cl)cc1 (stereo not given) as the entry.
Solution: 6.18 µM (inactive)
